So I've got a bunch of compounds here, and I need their IC50 values.
- TARGET_OF_ASSAY: KRAS WT (Homo sapiens (Human), UniProt P01116+P62937)
- Sequence (P01116-2 other isoform, or with tags, fused parts or gaps): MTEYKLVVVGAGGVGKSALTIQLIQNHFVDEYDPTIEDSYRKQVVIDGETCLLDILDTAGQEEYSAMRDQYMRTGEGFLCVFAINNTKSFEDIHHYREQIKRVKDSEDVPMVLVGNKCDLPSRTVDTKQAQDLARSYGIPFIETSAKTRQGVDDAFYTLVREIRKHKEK
- Sequence (P62937 whole entry): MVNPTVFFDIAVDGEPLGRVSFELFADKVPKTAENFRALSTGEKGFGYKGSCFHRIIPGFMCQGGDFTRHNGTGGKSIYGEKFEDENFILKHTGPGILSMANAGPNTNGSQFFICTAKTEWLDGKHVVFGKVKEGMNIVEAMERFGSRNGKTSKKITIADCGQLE
- ASSAY_TEXT: Ras-Raf (BRAF RBD) disruption / FRET / MOA assay, KRAS WT
- Format: biochemical
- CONDITIONS_USED: read-out: IC50* KRAS WT FRET data

COMPOUND: CCn1c(-c2cccnc2[C@H](C)OC)c2c3cc(ccc31)-c1csc(n1)C[C@H](NC(=O)CN1CC[C@@]3(CCN(C(=O)C#CC(C)(C)N4CCC4)C3)C1)C(=O)N1CCC[C@H](N1)C(=O)OCC(C)(C)C2 (atropisomer, axis not shown)
TARGET_OF_ASSAY: KRAS WT (Homo sapiens (Human), UniProt P01116+P62937)
IC50: 1000 to 10000 nM
--
COMPOUND: C=CC(=O)N1CCC(F)(C(=O)N(C)[C@H](C(=O)N[C@H]2C[C@H]3CN(CCO3)c3ccc4c(c3)c(c(-c3cccnc3[C@H](C)OC)n4CC)CC(C)(C)COC(=O)[C@@H]3CCCN(N3)C2=O)C(C)C)CC1 (atropisomer, axis not shown)
TARGET_OF_ASSAY: KRAS WT (Homo sapiens (Human), UniProt P01116+P62937)
IC50: 100 to 1000 nM
--
COMPOUND: C=CC(=O)N(C)C[C@@H]1CCN(C(=O)N(C)[C@H](C(=O)N[C@H]2Cc3nc(cs3)-c3ccc4c(c3)c(c(-c3cccnc3[C@H](C)OC)n4CC)CC(C)(C)COC(=O)[C@@H]3CCCN(N3)C2=O)C(C)C)C1 (atropisomer, axis not shown)
TARGET_OF_ASSAY: KRAS WT (Homo sapiens (Human), UniProt P01116+P62937)
IC50: 100 to 1000 nM
--
COMPOUND: C=C(F)C(=O)N1CC(N(C)C(=O)N(C)[C@H](C(=O)N[C@H]2Cc3nc(cs3)-c3ccc4c(c3)c(c(-c3cccnc3[C@H](C)OC)n4CC)CC(C)(C)COC(=O)[C@@H]3CCCN(N3)C2=O)C(C)C)C1 (atropisomer, axis not shown)
TARGET_OF_ASSAY: KRAS WT (Homo sapiens (Human), UniProt P01116+P62937)
IC50: 100 to 1000 nM
--
COMPOUND: CCn1c(-c2cccnc2[C@H](C)OC)c2c3cc(ccc31)N1CCC[C@@H](C[C@H](NC(=O)[C@H](C(C)C)N(C)C(=O)[C@H]3CCN(C(=O)C#CC(C)(C)N4CCC4)C3)C(=O)N3CCC[C@H](N3)C(=O)OCC(C)(C)C2)C1 (atropisomer, axis not shown)
TARGET_OF_ASSAY: KRAS WT (Homo sapiens (Human), UniProt P01116+P62937)
IC50: > 10000 nM

Give me IC50 for each of these compounds, listed below.
1. C=CC(=O)N1CCC2(CC1)CCN([C@H](C(=O)N[C@H]1Cc3cc(O)cc(c3)-c3ccc4c(c3)c(c(-c3cccnc3[C@H](C)OC)n4CC)CC(C)(C)COC(=O)[C@@H]3CCCN(N3)C1=O)C(C)C)C2=O (atropisomer, axis not shown)
2. C=CC(=O)Nc1cnc(OC[C@H](C(=O)N[C@H]2Cc3cccc(c3)-c3ccc4c(c3)c(c(-c3cccnc3[C@H](C)OC)n4CC)CC(C)(C)COC(=O)[C@@H]3CCCN(N3)C2=O)C(C)C)n1C (atropisomer, axis not shown)
3. C=CC(=O)N1CCN(C(=O)N(C)[C@H](C(=O)N[C@H]2Cc3nc(cs3)-c3ccc4c(c3)c(c(-c3cccnc3[C@H](C)OC)n4CC)CC(C)(C)COC(=O)[C@@H]3CCCN(N3)C2=O)C(C)C)[C@H]2CC[C@H]21 (atropisomer, axis not shown)
4. C=CC(=O)N1CC[C@H](C(=O)N(C)[C@H](C(=O)N[C@H]2Cc3nc(cs3)-c3ccc4c(c3)c(c(-c3cccnc3[C@H](C)OC)n4CC)CC(C)(C)COC(=O)[C@@H]3CCCN(N3)C2=O)C(C)C)C1 (atropisomer, axis not shown)
5. CCn1c(-c2cccnc2[C@H](C)OC)c2c3cc(ccc31)-c1cccc(c1)C[C@H](NC(=O)[C@H](C(C)C)N1CC[C@]3(CCN(C(=O)C#C[C@H]4COCCN4C)C3)C1=O)C(=O)N1CCC[C@H](N1)C(=O)OCC(C)(C)C2 (atropisomer, axis not shown)

Reply |
1: 10 to 100 nM; 2: 100 to 1000 nM; 3: 10 to 100 nM; 4: > 10000 nM; 5: > 10000 nM

Recorded values, source patent US11566007B2.
